This collection of values is drawn from patent US20110166149A1.

Test: Inhalation exposure: Compound A concentration in lung, plasma and BALF (Example 2)
Type: in vivo, BALB/c mice
Details: male, BALB/c, inhaled or intranasal, 0.15 mg/kg; mouse BALF, aerosol conc. 0.02 mg/L
PROPERTY NAME: Cmax (ng/mL)
Reply numerically in ng/mL, unit not repeated.

Please report the recorded Cmax for Nc1nc(N)c2nc(-c3cccc(O)c3)c(-c3cccc(O)c3)nc2n1 .
1190

###

Test: Inhalation exposure: Compound A concentration in lung, plasma and BALF (Example 2)
Format: in vivo, BALB/c mice
Conditions: male, BALB/c, mouse, BALF, inhaled; mice, 30 min inhalation, nominal aerosol 0.07 mg/L, 24 h; read-out: Compound A concentration BALF
PROPERTY NAME: concentration at 24 h
# number then unit; no other words

I'd like to know its concentration at 24 h. The compound in question is Nc1nc(N)c2nc(-c3cccc(O)c3)c(-c3cccc(O)c3)nc2n1
512 ng/mL

###

Experiment: Inhalation exposure: Compound A concentration in lung, plasma and BALF (Example 2)
Assay type: in vivo, BALB/c mice
Conditions: male, BALB/c, mouse, BALF, inhaled; mice, 30 min inhalation, nominal aerosol 0.2 mg/L, 0.25 h; read-out: Compound A concentration BALF
PROPERTY NAME: concentration at 0.25 h (ng/mL)
Respond with the bare value in ng/mL.

Item Nc1nc(N)c2nc(-c3cccc(O)c3)c(-c3cccc(O)c3)nc2n1 [Compound A] has what recorded concentration at 0.25 h?
5670

###

Experiment: Inhalation exposure: Compound A concentration in lung, plasma and BALF (Example 2)
Format: in vivo, BALB/c mice
Conditions: male, BALB/c, mouse, BALF, inhaled; mice, 30 min inhalation, nominal aerosol 0.2 mg/L, 0.5 h; read-out: Compound A concentration BALF
PROPERTY NAME: concentration at 0.5 h

Requested field: concentration at 0.5 h. Item: Nc1nc(N)c2nc(-c3cccc(O)c3)c(-c3cccc(O)c3)nc2n1
2220 ng/mL

###

Experiment: Inhalation exposure: Compound A concentration in lung, plasma and BALF (Example 2)
Assay type: in vivo, BALB/c mice
Details: male, BALB/c, mouse, BALF, inhaled; mice, 30 min inhalation, nominal aerosol 0.02 mg/L, 12 h; read-out: Compound A concentration BALF
PROPERTY NAME: concentration at 12 h (ng/mL)
Use ng/mL as the unit, but write only the number.

Consider the compound shown here: Nc1nc(N)c2nc(-c3cccc(O)c3)c(-c3cccc(O)c3)nc2n1 What is its recorded concentration at 12 h?
296

###

Experiment: Inhalation exposure: Compound A concentration in lung, plasma and BALF (Example 2)
Type: in vivo, BALB/c mice
Conditions: male, BALB/c, mouse, BALF, inhaled; mice, 30 min inhalation, nominal aerosol 0.02 mg/L, 4 h; read-out: Compound A concentration BALF
PROPERTY NAME: concentration at 4 h (ng/mL)
Enter your answer as a number in ng/mL; do not include the unit.

Find the recorded concentration at 4 h belonging to Nc1nc(N)c2nc(-c3cccc(O)c3)c(-c3cccc(O)c3)nc2n1 and report it.
541

###

Assay: Inhalation exposure: Compound A concentration in lung, plasma and BALF (Example 2)
Type: in vivo, BALB/c mice
Details: male, BALB/c, mouse, lung, inhaled; mice, 30 min inhalation, nominal aerosol 0.2 mg/L, 8 h; read-out: Compound A concentration Lung
PROPERTY NAME: concentration at 8 h (ng/g)
Record the value in ng/g, omitting the unit from your answer.

Record request: concentration at 8 h value, item Nc1nc(N)c2nc(-c3cccc(O)c3)c(-c3cccc(O)c3)nc2n1
44000

###

Test: Inhalation exposure: Compound A concentration in lung, plasma and BALF (Example 2)
Assay type: in vivo, BALB/c mice
Settings: male, BALB/c, mouse, BALF, inhaled; mice, 30 min inhalation, nominal aerosol 0.07 mg/L, 0.083 h; read-out: Compound A concentration BALF
PROPERTY NAME: concentration at 0.083 h

// returns reported concentration at 0.083 h for input Nc1nc(N)c2nc(-c3cccc(O)c3)c(-c3cccc(O)c3)nc2n1
2140 ng/mL

###

Assay: Inhalation exposure: Compound A concentration in lung, plasma and BALF (Example 2)
Format: in vivo, BALB/c mice
Conditions: male, BALB/c, inhaled or intranasal, 0.7 mg/kg; mouse BALF, aerosol conc. 0.2 mg/L
PROPERTY NAME: AUC(0-inf) (ng·h/mL)
Lab book: enter the figure in ng·h/mL, no units written.

Any idea what AUC(0-inf) was measured for Nc1nc(N)c2nc(-c3cccc(O)c3)c(-c3cccc(O)c3)nc2n1 ?
54300

###

Assay: Inhalation exposure: Compound A concentration in lung, plasma and BALF (Example 2)
Assay type: in vivo, BALB/c mice
Conditions: male, BALB/c, mouse, lung, inhaled; mice, 30 min inhalation, nominal aerosol 0.07 mg/L, 4 h; read-out: Compound A concentration Lung
PROPERTY NAME: concentration at 4 h (ng/g)
Numeric answer only, unit ng/g assumed.

Item Nc1nc(N)c2nc(-c3cccc(O)c3)c(-c3cccc(O)c3)nc2n1 has what recorded concentration at 4 h?
17000

###

Experiment: Inhalation exposure: Compound A concentration in lung, plasma and BALF (Example 2)
Type: in vivo, BALB/c mice
Conditions: male, BALB/c, mouse, BALF, inhaled; mice, 30 min inhalation, nominal aerosol 0.07 mg/L, 4 h; read-out: Compound A concentration BALF
PROPERTY NAME: concentration at 4 h (ng/mL)
Write the number in ng/mL without appending the unit.

State the recorded concentration at 4 h for this entry: Nc1nc(N)c2nc(-c3cccc(O)c3)c(-c3cccc(O)c3)nc2n1 [Compound A]
1310

###

Test: Inhalation exposure: Compound A concentration in lung, plasma and BALF (Example 2)
Type: in vivo, BALB/c mice
Conditions: male, BALB/c, mouse, lung, inhaled; mice, 30 min inhalation, nominal aerosol 0.02 mg/L, 8 h; read-out: Compound A concentration Lung
PROPERTY NAME: concentration at 8 h (ng/g)
Just the number in ng/g, nothing appended.

Using the record for Nc1nc(N)c2nc(-c3cccc(O)c3)c(-c3cccc(O)c3)nc2n1 , report its concentration at 8 h.
5660

###

Experiment: Inhalation exposure: Compound A concentration in lung, plasma and BALF (Example 2)
Assay type: in vivo, BALB/c mice
Settings: male, BALB/c, inhaled or intranasal, 0.7 mg/kg; mouse BALF, aerosol conc. 0.2 mg/L
PROPERTY NAME: Tmax (min)
Give just the numeric value; min need not be written.

I would be grateful if you could share the reported Tmax for Nc1nc(N)c2nc(-c3cccc(O)c3)c(-c3cccc(O)c3)nc2n1 .
15

###

Assay: Inhalation exposure: Compound A concentration in lung, plasma and BALF (Example 2)
Format: in vivo, BALB/c mice
Conditions: male, BALB/c, mouse, lung, inhaled; mice, 30 min inhalation, nominal aerosol 0.07 mg/L, 12 h; read-out: Compound A concentration Lung
PROPERTY NAME: concentration at 12 h (ng/g)
Answer format: numeric, ng/g implied, no suffix.

Value lookup for concentration at 12 h; key = Nc1nc(N)c2nc(-c3cccc(O)c3)c(-c3cccc(O)c3)nc2n1 [Compound A]
16800

###

Experiment: Inhalation exposure: Compound A concentration in lung, plasma and BALF (Example 2)
Format: in vivo, BALB/c mice
Conditions: male, BALB/c, mouse, lung, inhaled; mice, 30 min inhalation, nominal aerosol 0.2 mg/L, 1 h; read-out: Compound A concentration Lung
Experimental: A series of compositions for pulmonary delivery were prepared by making a 20% suspension of compound A in a 5% tyloxapol solution in water. […] The actual concentrations of test article in the exposure atmospheres were determined by chemical analysis of timed filter samples collected directly from a nose-only exposure port during exposure. […] The filters and impactor stages were analyzed chemically by LRRI and are described below.
PROPERTY NAME: concentration at 1 h

Any idea what concentration at 1 h was measured for Nc1nc(N)c2nc(-c3cccc(O)c3)c(-c3cccc(O)c3)nc2n1 [Compound A] ?
37700 ng/g

###

Test: Inhalation exposure: Compound A concentration in lung, plasma and BALF (Example 2)
Format: in vivo, BALB/c mice
Details: male, BALB/c, mouse, lung, inhaled; mice, 30 min inhalation, nominal aerosol 0.02 mg/L, 0.083 h; read-out: Compound A concentration Lung
PROPERTY NAME: concentration at 0.083 h
Param answer (str): number followed by unit.

Give the measured concentration at 0.083 h of Nc1nc(N)c2nc(-c3cccc(O)c3)c(-c3cccc(O)c3)nc2n1 .
20900 ng/g

###

Assay: Inhalation exposure: Compound A concentration in lung, plasma and BALF (Example 2)
Format: in vivo, BALB/c mice
Settings: male, BALB/c, inhaled or intranasal, 0.7 mg/kg; mouse BALF, aerosol conc. 0.2 mg/L; read-out: AUC(0-24)
PROPERTY NAME: AUC(0-t) (ng·h/mL)
Output spec: scalar in ng·h/mL, unitless text.

Look at this compound and give its reported AUC(0-t). Nc1nc(N)c2nc(-c3cccc(O)c3)c(-c3cccc(O)c3)nc2n1
37200
